TARGET OF ASSAY: T1, rat IL-21R expressed on cells (rat)
T1 construct: whole, on cells; Transiently transfected CHO-PA-Dukx cells
TEST PROTOCOL: cell ELISA on transfected CHO cells, 13 nM IgG
RECORDED METRIC: A450 at 13 nM Ab in cell ELISA (A450)
Unit A450 implied. Number only.

BINDER	A450 at 13 nM Ab in cell ELISA, A450
AbJ (antibody, human IgG1, V domains shown, Full-length human IgG1 / human lambda, transient, conditioned medium; Framework limits derived; also called VH3/VLP) VH: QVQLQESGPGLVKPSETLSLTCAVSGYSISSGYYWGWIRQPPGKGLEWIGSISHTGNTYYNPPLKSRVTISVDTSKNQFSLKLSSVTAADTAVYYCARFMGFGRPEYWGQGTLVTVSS VL: SSELTQDPAVSVALGQTVRITCQGDSLRTYYASWYQQKPGQAPVLVIYGKHKRPSGIPDRFSGSSSGNTASLTITGAQAEDEADYYCNSRDSSGNPHVLFGGGTQLTVL	1.26

Moving on to another binder below.
Task: In one line, give reported A450 at 13 nM Ab in cell ELISA of the entry AbK (antibody, human IgG1, V domains shown, Full-length human IgG1 / human lambda, transient, conditioned medium; Framework limits derived; also called VH3/VL3) VH: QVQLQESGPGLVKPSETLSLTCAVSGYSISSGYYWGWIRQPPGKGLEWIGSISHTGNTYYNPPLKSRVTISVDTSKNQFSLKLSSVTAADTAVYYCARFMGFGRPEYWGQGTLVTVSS VL: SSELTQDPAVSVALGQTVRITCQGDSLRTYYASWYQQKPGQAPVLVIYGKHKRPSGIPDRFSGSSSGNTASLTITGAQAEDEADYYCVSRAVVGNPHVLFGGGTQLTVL .
Output: 1.18
